Value source: patent US11186594B2

TEST: Toxicity study (MTD) in normal mice
Type: in vivo, C3H female normal mice
MEASUREMENT SETUP: single i.p. injection, mice checked daily for 40 days (MTD40)
PROPERTY MEASURED: MTD Values (mg/kg)
Number only, in mg/kg; omit the unit.

Query block: Output MTD Values of CCC1(OC(=O)COc2ccc(C(=O)OC3c4cc5c(cc4C(c4cc(OC)c(OC)c(OC)c4)C4C(=O)OCC34)OCO5)cc2)C(=O)OCc2c1cc1n(c2=O)Cc2cc3c(CN(C)C)c(O)ccc3nc2-1.Cl (stereo not drawn) [N1 HCL Salt]
Result block: 120

Query block: Output MTD Values of CC[C@@]1(OC(=O)COc2ccc(C(=O)O[C@H]3c4cc5c(cc4[C@@H](c4cc(OC)c(OC)c(OC)c4)[C@H]4C(=O)OC[C@@H]43)OCO5)cc2)C(=O)OCc2c1cc1n(c2=O)Cc2cc3cc(OC(=O)N4CCC(N5CCCCC5)CC4)ccc3nc2-1
Result block: 300

Query block: Output MTD Values of CCc1c2c(nc3ccc(OC(=O)N4CCC(N5CCCCC5)CC4)cc13)-c1cc3c(c(=O)n1C2)COC(=O)C3(CC)OC(=O)COc1ccc(C(=O)OC2c3cc4c(cc3C(c3cc(OC)c(OC)c(OC)c3)C3C(=O)OCC23)OCO4)cc1.Cl (stereo not drawn) [N3 HCL Salt]
Result block: 144

Query block: Output MTD Values of CC[C@@]1(OC(=O)COc2ccc(C(=O)O[C@H]3c4cc5c(cc4[C@@H](c4cc(OC)c(OC)c(OC)c4)[C@H]4C(=O)OC[C@@H]43)OCO5)cc2)C(=O)OCc2c1cc1n(c2=O)Cc2cc3cc(OC(=O)N4CCC(N5CCCCC5)CC4)ccc3nc2-1.Cl [Compound 801-HCl]
Result block: 300

Query block: Output MTD Values of CCc1c2c(nc3ccc(O)c(CN(C)C)c13)-c1cc3c(c(=O)n1C2)COC(=O)C3(CC)OC(=O)COc1ccc(C(=O)OC2c3cc4c(cc3C(c3cc(OC)c(OC)c(OC)c3)C3C(=O)OCC23)OCO4)cc1 (stereo not drawn)
Result block: 250

Query block: Output MTD Values of CCc1c2c(nc3ccc(O)c(CN(C)C)c13)-c1cc3c(c(=O)n1C2)COC(=O)C3(CC)OC(=O)COc1ccc(C(=O)OC2c3cc4c(cc3C(c3cc(OC)c(OC)c(OC)c3)C3C(=O)OCC23)OCO4)cc1.Cl (stereo not drawn) [N4 HCL Salt]
Result block: 180
